System: NCI-H1944
Assay: normalised cell viability (NPI; 0 = phenylarsine oxide control, 1 = DMSO control) (fraction of DMSO control); higher = more viable cells (less compound toxicity)
Conditions: glucocorticoid arm: vehicle; compound 5 µM; 6 days
In all, about 1,900 compounds were measured (“normalised cell viability (NPI; 0 = phenylarsine oxide control, 1 = DMSO control)”: median about 1, lowest 2% from about 0.039 on). Shown is part of a subset that was picked to be rich in the lowest values.
Rule: normalised cell viability below 1 gives Fulfilled, anything at or above gives Not fulfilled.

Known results for compounds:
Compound: c1cncc(CN2CCC(n3ncc4c(N5CCOCC5)nc(-c5ccc6[nH]ccc6c5)nc43)CC2)c1
Assay target: NCI-H1944
Assigned class: Fulfilled
//
Compound: O=C(NCCCNc1nc(Nc2cccc(NC(=O)N3CCCC3)c2)ncc1I)c1cccs1
Assay target: NCI-H1944
Assigned class: Fulfilled
//
Compound: CN(C)CCCn1cc(C2=C(c3c[nH]c4ccccc34)C(=O)NC2=O)c2ccccc21
Assay target: NCI-H1944
Assigned class: Not fulfilled
//
Compound: NC[C@@H]1O[C@H](C23CC4CC(CC(C4)C2)C3)Cc2c1ccc(O)c2O
Assay target: NCI-H1944
Assigned class: Fulfilled

Now look at this one.
Here's an entry: COC[C@H](NC(=O)c1cnc(C)s1)C(=O)N[C@@H](COC)C(=O)N[C@@H](Cc1ccccc1)C(=O)[C@@]1(C)CO1 [Oprozomib (ONX 0912)] . Is its normalised cell viability below 1?
Fulfilled

====

Tested on: NCI-H1944
Test: normalised cell viability (NPI; 0 = phenylarsine oxide control, 1 = DMSO control) (fraction of DMSO control); higher = more viable cells (less compound toxicity)
Settings: glucocorticoid arm: hydrocortisone 2.75 uM co-treatment; compound 1 µM; 6 days
Structures can show the parent of a compound that is named as a salt. The full ranking holds about 1,900 compounds; the median of “normalised cell viability (NPI; 0 = phenylarsine oxide control, 1 = DMSO control)” is about 1, and the lowest 2% start at about 0.039. The full list was thinned out, with the lowest values kept by preference.
Observable: normalised cell viability
Answers are plain numbers.

# annotated cases, reported normalised cell viability shown
Molecule: CC(C)[C@H]1c2ccc(F)cc2CC[C@@]1(CCN(C)CCCc1nc2ccccc2[nH]1)OC(=O)C1CC1
Assay target: NCI-H1944
Observable: normalised cell viability
Readout value: 0.994
//
Molecule: Nc1ncnc2c1ncn2[C@@H]1O[C@@H]2COP(=O)(O)O[C@H]2[C@H]1O [Adenosine 3',5'-cyclic monophosphate]
Assay target: NCI-H1944
Observable: normalised cell viability
Readout value: 0.986
//
Molecule: COCC(=O)O[C@]1(CCN(C)CCCc2nc3ccccc3[nH]2)CCc2cc(F)ccc2[C@@H]1C(C)C [Mibefradil dihydrochloride]
Assay target: NCI-H1944
Observable: normalised cell viability
Readout value: 0.977

Let's switch to this molecule now.
Find the measured normalised cell viability of `N=C(N)NCCC[C@H](N)C(=O)O` and report it.
1

====

System: NCI-H1944;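 note: CTB read-out in 384-well plates, triplicate wells, NPI normalised per plate against 1 µM phenylarsine oxide (0) and 0.1% DMSO (1) controls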
Test: normalised cell viability (NPI; 0 = phenylarsine oxide control, 1 = DMSO control) (fraction of DMSO control); NCI-H1944 is a non-small cell lung cancer line; higher = more viable cells (less compound toxicity)
Details: glucocorticoid arm: hydrocortisone 2.75 uM co-treatment; compound 1 µM; 6 days
The full ranking holds about 1,900 compounds; the median of “normalised cell viability (NPI; 0 = phenylarsine oxide control, 1 = DMSO control)” is about 1, and the lowest 2% start at about 0.039. This excerpt belongs to a sample that is enriched for the lowest values.
Rule: normalised cell viability below 1 gives yes, anything at or above gives no.

Known results for molecules:
Smiles text: CC(=O)O[C@H]1C(=O)[C@@]2(C)[C@H]([C@H](OC(=O)c3ccccc3)[C@]3(O)C[C@H](OC(=O)[C@H](O)[C@@H](NC(=O)c4ccccc4)c4ccccc4)C(C)=C1C3(C)C)[C@]1(OC(C)=O)CO[C@@H]1C[C@@H]2O
Assigned class: yes
--
Smiles text: CC(=O)O[C@@]12CO[C@@H]1C[C@H](O)[C@@]1(C)C(=O)[C@H](O)C3=C(C)[C@@H](OC(=O)[C@H](O)[C@@H](NC(=O)OC(C)(C)C)c4ccccc4)C[C@@](O)([C@@H](OC(=O)c4ccccc4)[C@H]21)C3(C)C
Assigned class: yes
--
Smiles text: CCCS(=O)(=O)Nc1ccc(F)c(C(=O)c2c[nH]c3ncc(-c4ccc(Cl)cc4)cc23)c1F
Assigned class: no

Now look at this one.
Here's an entry: `COc1cc2nccc(Oc3ccc(NC(=O)Nc4ccc(F)cc4F)c(F)c3)c2cc1OC` . Is its normalised cell viability below 1?
no

The measurements presented in this section are drawn from the supplement of paper PMC8285479.
